Hi there, I'd appreciate the recorded pKi for every entry that follows.
# target: UniProtKB P21917
# Sequence (P21917 whole entry): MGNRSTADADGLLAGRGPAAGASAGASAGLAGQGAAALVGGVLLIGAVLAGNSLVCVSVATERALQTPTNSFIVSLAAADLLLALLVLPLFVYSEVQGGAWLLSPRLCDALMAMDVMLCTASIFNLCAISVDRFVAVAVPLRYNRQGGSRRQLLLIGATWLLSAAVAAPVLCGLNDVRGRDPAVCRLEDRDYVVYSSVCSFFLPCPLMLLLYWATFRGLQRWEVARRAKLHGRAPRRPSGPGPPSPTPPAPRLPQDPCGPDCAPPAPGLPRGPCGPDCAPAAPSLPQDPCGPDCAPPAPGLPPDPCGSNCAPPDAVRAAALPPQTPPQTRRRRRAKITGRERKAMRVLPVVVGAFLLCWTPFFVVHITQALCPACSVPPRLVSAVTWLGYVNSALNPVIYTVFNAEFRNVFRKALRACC
Answers are plain numbers, as −log10 of the molar value.

Here's what some known entries look like.
COc1ccc(N2CCN(Cc3nc4ccccc4[nH]3)CC2)cc1; 7.69
Clc1ccc(N2CCN(Cc3cc4ccccn4n3)CC2)cc1; 8.57
Clc1ccccc1N1CCN(Cc2nc3ccc[nH]c-3n2)CC1; 6.14
Clc1cccc(N2CCN(Cc3nc4ccccc4[nH]3)CC2)c1; 8.02

Turning to the following compound.
Ask: Identify measured pKi associated with "Fc1ccc(N2CCN(Cc3nc4ccccc4[nH]3)CC2)cc1"
Result: 7.10
